# System: K. pneumoniae ATCC 4352
# Measurement Protocol: MIC susceptibility testing, broth microdilution in CaMHB
# Format: cell-based, Klebsiella pneumoniae
# Condition Set: K. pneumoniae ATCC 4352; Table 4
Structures can show the parent of a compound that is named as a salt. Where a SMILES comes first, the peptide text is derived from it. Bridges are numbered along the chain shown (N, C = ends). [ ]: non-standard residue; d: D form. The star is where a group is joined. ξ: configuration not given here. Thr(3ξ) = CC(O)[C@H](N)C(=O)O; Dab = NCC[C@H](N)C(=O)O; X1 = CCCCCCC(O)C(=O)*; X2 = NC1CCCC1C(=O)*; GABA = NCCCC(=O)O
Entries annotated with measured MIC

Use the examples below as a reference point.
Molecule	Reading
CCCCCCC(O)C(=O)N[C@H](C(=O)N[C@@H](CCN)C(=O)N[C@H]1CCNC(=O)[C@H](C(C)O)NC(=O)[C@H](CCN)NC(=O)[C@H](CCN)NC(=O)[C@H](CC(C)C)NC(=O)[C@@H](Cc2ccccc2)NC(=O)[C@H](CCN)NC1=O)C(C)O (stereo partly drawn) [Example 2, Sulphate Salt] (X1-[Thr(3ξ)][Dab][Dab][Dab][dF]L[Dab][Dab][Thr(3ξ)]; lactam 3-C)	0.5 micrograms/mL
CC(C)C[C@@H]1NC(=O)[C@@H](Cc2ccccc2)NC(=O)[C@H](CCN)NC(=O)[C@@H](NC(=O)[C@H](CCN)NC(=O)[C@@H](NC(=O)CCCN)[C@@H](C)O)CCNC(=O)[C@H]([C@@H](C)O)NC(=O)[C@H](CCN)NC(=O)[C@H](CCN)NC1=O [Example 6, Sulphate Salt] (H-[GABA]T[Dab][Dab][Dab][dF]L[Dab][Dab]T; lactam 4-C)	0.125 micrograms/mL

Ask: Quick one: MIC of CC(C)C[C@@H]1NC(=O)[C@@H](Cc2ccccc2)NC(=O)[C@H](CCN)NC(=O)[C@@H](NC(=O)[C@H](CCN)NC(=O)[C@@H](NC(=O)C2CCCC2N)C(C)O)CCNC(=O)[C@H](C(C)O)NC(=O)[C@H](CCN)NC(=O)[C@H](CCN)NC1=O (stereo partly drawn) [Example 11, Sulphate Salt] (X2-[Thr(3ξ)][Dab][Dab][Dab][dF]L[Dab][Dab][Thr(3ξ)]; lactam 3-C) ?
Result: 0.5 micrograms/mL

---

# Tested on: K. pneumoniae NCTC8172
# Measurement Protocol: MIC susceptibility testing, broth microdilution in CaMHB
# Type: cell-based, Klebsiella pneumoniae
# Condition Set: Table 4A, different batches of cation-adjusted Muller-Hinton broth
Where a name gives a salt, the structure may show the parent alone. Where a SMILES comes first, the peptide text is derived from it. Bridges are numbered along the chain shown (N, C = ends). [ ]: non-standard residue; d: D form. The star is where a group is joined. ξ: configuration not given here. ξHexahydromandeloyl = O=C(C(O)C1CCCCC1)*; Thr(3ξ) = CC(O)[C@H](N)C(=O)O; Dab = NCC[C@H](N)C(=O)O; X4 = CN(C)CCCC(=O)*; GABA = NCCCC(=O)O
Observed Property: MIC

Ask: Quick one: MIC of CC(C)C[C@@H]1NC(=O)[C@@H](Cc2ccccc2)NC(=O)[C@H](CCN)NC(=O)[C@@H](NC(=O)[C@H](CCN)NC(=O)[C@@H](NC(=O)CCCN(C)C)C(C)O)CCNC(=O)[C@H](C(C)O)NC(=O)[C@H](CCN)NC(=O)[C@H](CCN)NC1=O (stereo partly drawn) [Example 18] (X4-[Thr(3ξ)][Dab][Dab][Dab][dF]L[Dab][Dab][Thr(3ξ)]; lactam 3-C) ?
Result: >32 micrograms/mL

Ask: Field entry: CC(C)C[C@@H]1NC(=O)[C@@H](Cc2ccccc2)NC(=O)[C@H](CCN)NC(=O)[C@@H](NC(=O)[C@H](CCN)NC(=O)[C@@H](NC(=O)CCCN)[C@@H](C)O)CCNC(=O)[C@H]([C@@H](C)O)NC(=O)[C@H](CCN)NC(=O)[C@H](CCN)NC1=O [Example 6, Sulphate Salt] (H-[GABA]T[Dab][Dab][Dab][dF]L[Dab][Dab]T; lactam 4-C)
Result: 16 micrograms/mL

Ask: Field entry: CC(C)C[C@@H]1NC(=O)[C@@H](Cc2ccccc2)NC(=O)[C@H](CCN)NC(=O)[C@@H](NC(=O)[C@H](CCN)NC(=O)[C@@H](NC(=O)C(O)C2CCCCC2)C(C)O)CCNC(=O)[C@H](C(C)O)NC(=O)[C@H](CCN)NC(=O)[C@H](CCN)NC1=O (stereo partly drawn) [Example 34] (ξHexahydromandeloyl-[Thr(3ξ)][Dab][Dab][Dab][dF]L[Dab][Dab][Thr(3ξ)]; lactam 3-C)
Result: >32 micrograms/mL

---

# Tested on: P. aeruginosa ATCC10145
# Measurement Protocol: MIC susceptibility testing, broth microdilution in CaMHB
# Type: cell-based, Pseudomonas aeruginosa
# Condition Set: Table 4
Counter-ions that a name gives are not always drawn. Where a SMILES comes first, the peptide text is derived from it. Bridges are numbered along the chain shown (N, C = ends). [ ]: non-standard residue; d: D form. The star is where a group is joined. ξ: configuration not given here. ξβ3hGly(cHex) = NC(CC(=O)*)C1CCCCC1; Thr(3ξ) = CC(O)[C@H](N)C(=O)O; Dab = NCC[C@H](N)C(=O)O; Aoc = NCCCCCCCC(=O)O; X2 = NC1CCCC1C(=O)*
Observed Property: MIC
Write the figure, then the unit, nothing else.

Use the examples below as a reference point.
Compound	MIC
CC(C)C[C@@H]1NC(=O)[C@@H](Cc2ccccc2)NC(=O)[C@H](CCN)NC(=O)[C@@H](NC(=O)[C@H](CCN)NC(=O)[C@@H](NC(=O)CCCCCCCN)C(C)O)CCNC(=O)[C@H](C(C)O)NC(=O)[C@H](CCN)NC(=O)[C@H](CCN)NC1=O (stereo partly drawn) [Example 9, Sulphate Salt] (H-[Aoc][Thr(3ξ)][Dab][Dab][Dab][dF]L[Dab][Dab][Thr(3ξ)]; lactam 4-C)	2 micrograms/mL
CC(C)C[C@@H]1NC(=O)[C@@H](Cc2ccccc2)NC(=O)[C@H](CCN)NC(=O)[C@@H](NC(=O)[C@H](CCN)NC(=O)[C@@H](NC(=O)CC(N)C2CCCCC2)C(C)O)CCNC(=O)[C@H](C(C)O)NC(=O)[C@H](CCN)NC(=O)[C@H](CCN)NC1=O (stereo partly drawn) [Example 14, Sulphate Salt] ({ξβ3hGly(cHex)}-[Thr(3ξ)][Dab][Dab][Dab][dF]L[Dab][Dab][Thr(3ξ)]; lactam 3-C)	0.25 micrograms/mL

Please find the next compound below.
Ask: Return MIC measured with P. aeruginosa ATCC10145 given this compound: CC(C)C[C@@H]1NC(=O)[C@@H](Cc2ccccc2)NC(=O)[C@H](CCN)NC(=O)[C@@H](NC(=O)[C@H](CCN)NC(=O)[C@@H](NC(=O)C2CCCC2N)C(C)O)CCNC(=O)[C@H](C(C)O)NC(=O)[C@H](CCN)NC(=O)[C@H](CCN)NC1=O (stereo partly drawn) [Example 11, Sulphate Salt] (X2-[Thr(3ξ)][Dab][Dab][Dab][dF]L[Dab][Dab][Thr(3ξ)]; lactam 3-C)
Result: 0.25 micrograms/mL

---

# System: K. pneumoniae ATCC 4352
# Measurement Protocol: MIC susceptibility testing, broth microdilution in CaMHB
# Format: cell-based, Klebsiella pneumoniae
# Condition Set: K. pneumoniae ATCC 4352; Table 4
Counter-ions that a name gives are not always drawn. Where a SMILES comes first, the peptide text is derived from it. Bridges are numbered along the chain shown (N, C = ends). [ ]: non-standard residue; d: D form. ξ: configuration not given here. Thr(3ξ) = CC(O)[C@H](N)C(=O)O; Dab = NCC[C@H](N)C(=O)O; Aoc = NCCCCCCCC(=O)O; Ahx = NCCCCCC(=O)O
Entries annotated with measured MIC
Write the figure, then the unit, nothing else.

Compound	MIC
CC(C)C[C@@H]1NC(=O)[C@@H](Cc2ccccc2)NC(=O)[C@H](CCN)NC(=O)[C@@H](NC(=O)[C@H](CCN)NC(=O)[C@@H](NC(=O)CCCCCN)C(C)O)CCNC(=O)[C@H](C(C)O)NC(=O)[C@H](CCN)NC(=O)[C@H](CCN)NC1=O (some centres unmarked) [Example 7, Sulphate Salt] (H-[Ahx][Thr(3ξ)][Dab][Dab][Dab][dF]L[Dab][Dab][Thr(3ξ)]; lactam 4-C)	0.5 micrograms/mL

Please find the next compound below.
Ask: Quick one: MIC of CC(C)C[C@@H]1NC(=O)[C@@H](Cc2ccccc2)NC(=O)[C@H](CCN)NC(=O)[C@@H](NC(=O)[C@H](CCN)NC(=O)[C@@H](NC(=O)CCCCCCCN)C(C)O)CCNC(=O)[C@H](C(C)O)NC(=O)[C@H](CCN)NC(=O)[C@H](CCN)NC1=O (some centres unmarked) [Example 9, Sulphate Salt] (H-[Aoc][Thr(3ξ)][Dab][Dab][Dab][dF]L[Dab][Dab][Thr(3ξ)]; lactam 4-C) ?
Result: 0.5 micrograms/mL
